# Test system: NOMO1
# PROCEDURE DETAILS: cell viability relative to DMSO control; higher = less cytotoxic
# TEST CONTEXT: RPMI 5 mM glucose + 10% dialyzed FBS; 48 h; 15.4 µM
cell viability less than 90% is Fulfilled; cell viability greater than or equal to 90% is Not fulfilled.

# MOLECULE, ANSWER LABEL
measured = [
    ("COc1ccc([C@@H]2CNC(=O)C2)cc1OC1CCCC1", "Not fulfilled"),
    ("c1ccc2c(Oc3nc(Nc4ccc(N5CCOCC5)cc4)c4ncn(C5CCCCC5)c4n3)cccc2c1", "Not fulfilled"),
    ("CCCn1c(=O)c2[nH]c(-c3cnn(Cc4cccc(C(F)(F)F)c4)c3)nc2n(CC)c1=O", "Fulfilled"),
    ("C[C@@]12OC(=O)[C@@]1(NC(=O)[C@@H]2CCCl)[C@@H](O)[C@H]\\3CCC\\C=C3", "Fulfilled"),
    ("CCOc1ccccc1OCCNC(C)Cc1ccc(OC)c([S+](N)(=O)[O-])c1 (centres undefined)", "Not fulfilled"),
    ("Cn1cc(-c2ccc3ncc(Cc4ccc5ncccc5c4)n3n2)cn1", "Not fulfilled"),
    ("COc1cc2ncnc(Nc3ccc(F)c(Cl)c3)c2cc1OCCCN1CCOCC1", "Not fulfilled"),
    ("CCC(CC)[C@H](NC(C)=O)[C@@H]1[C@H](O)[C@@H](C(=O)O)C[C@H]1NC(=N)N", "Fulfilled"),
]
